- test-settings: in n-butanol, 318.15 K

| given-smiles | solubility (mole fraction) |
| --- | --- |
| O=C(O)c1c(O)cccc1O | 0.306 |

----------
- test-settings: in methanol, 303.15 K

| given-smiles | solubility (mole fraction) |
| --- | --- |
| O=C(O)c1c(O)cccc1O | 0.276 |

----------
- test-settings: in ethanol, 318.15 K

| given-smiles | solubility (mole fraction) |
| --- | --- |
| O=C(O)c1c(O)cccc1O | 0.318 |

----------
- test-settings: in ethanol, 283.15 K

| given-smiles | solubility (mole fraction) |
| --- | --- |
| O=C(O)c1c(O)cccc1O | 0.234 |
